Data provenance is paper PMC3353862.

Give measured pIC50 for each item. Keep answers brief.
Test system: bacterial protein synthesis (aminoacylation/translation system)
RUN DESCRIPTION: aminoacylation/translation (A/T) assay
Format: biochemical
EXPERIMENTAL PARAMETERS: A/T assay, Table 1; read-out: IC50
On this scale, pIC50 is minus log10 of a concentration expressed in M (mol/L).

Task: Answer with pIC50 of O=c1[nH]c(-c2ccccn2)nc2c1CN(Cc1cc3c(cc1Cl)OCO3)CC2 measured for bacterial protein synthesis (aminoacylation/translation system).
Result: 6.43

Task: Answer with pIC50 of COc1cc(Cl)cc(CN2CCc3nc(-c4ccccn4)[nH]c(=O)c3C2)c1OC measured for bacterial protein synthesis (aminoacylation/translation system).
Result: 5.70

Task: Answer with pIC50 of O=c1[nH]c(-c2ccccn2)nc2c1CN(Cc1c(F)cccc1F)CC2 measured for bacterial protein synthesis (aminoacylation/translation system).
Result: 5.57

Task: Answer with pIC50 of COc1cc(OC)c(OC)cc1CN1CCc2nc(-c3ccccn3)[nH]c(=O)c2C1 measured for bacterial protein synthesis (aminoacylation/translation system).
Result: 5.10

Task: Answer with pIC50 of O=c1[nH]c(-c2ccccn2)nc2c1CN(Cc1ccccc1Cl)CC2 measured for bacterial protein synthesis (aminoacylation/translation system).
Result: 5.52

Task: Answer with pIC50 of CCOCc1cc(CN2CCc3nc(-c4ccccn4)[nH]c(=O)c3C2)ccc1OC measured for bacterial protein synthesis (aminoacylation/translation system).
Result: 5.57

Task: Answer with pIC50 of CC1CN(Cc2ccc(Cl)cc2)Cc2c1nc(-c1ccccn1)[nH]c2=O (centres unmarked) measured for bacterial protein synthesis (aminoacylation/translation system).
Result: 5.13

Task: Answer with pIC50 of O=C(c1ccc(Cl)cc1)N1CCc2nc(-c3ccccn3)[nH]c(=O)c2C1 measured for bacterial protein synthesis (aminoacylation/translation system).
Result: 5.77

---

Give measured MIC S. pneumo for each item. Keep answers brief.
Tested on: S. pneumoniae
RUN DESCRIPTION: Broth microdilution MIC testing
Assay type: cell-based, Streptococcus pneumoniae
EXPERIMENTAL PARAMETERS: S. pneumoniae
The reply should be a number in µg/mL, with the unit left off.

Task: Dear colleague, please send me the reported MIC S. pneumo for CC(C)Oc1cccc(CN2CCc3nc(-c4ccccn4)[nH]c(=O)c3C2)c1 when you can.
Result: 8

Task: Dear colleague, please send me the reported MIC S. pneumo for O=c1[nH]c(-c2ccccn2)nc2c1CN(Cc1c(F)cccc1F)CC2 when you can.
Result: 16

Task: Dear colleague, please send me the reported MIC S. pneumo for COc1ccc(CN2CCc3nc(-c4ccccn4)[nH]c(=O)c3C2)cc1Cn1cccn1 when you can.
Result: 128

Task: Dear colleague, please send me the reported MIC S. pneumo for O=c1[nH]c(-c2ccccn2)nc2c1CN(Cc1cccc(Cl)c1)CC2 when you can.
Result: 4

Task: Dear colleague, please send me the reported MIC S. pneumo for CN(C)c1ccc(CN2CCc3nc(-c4ccccn4)[nH]c(=O)c3C2)cc1 when you can.
Result: 32

Task: Dear colleague, please send me the reported MIC S. pneumo for O=c1[nH]c(-c2ccccn2)nc2c1CN(Cc1ccccc1N1CCCC1)CC2 when you can.
Result: 32

Task: Dear colleague, please send me the reported MIC S. pneumo for O=c1[nH]c(-c2ccccn2)nc2c1CN(Cc1ccc(Cl)cc1)CC2 when you can.
Result: 4

Task: Dear colleague, please send me the reported MIC S. pneumo for COc1cc(C)c(CN2CCc3nc(-c4ccccn4)[nH]c(=O)c3C2)cc1OC when you can.
Result: 32

Task: Dear colleague, please send me the reported MIC S. pneumo for O=c1[nH]c(-c2ccccn2)nc2c1CN(Cc1ccccc1OCc1ccccn1)CC2 when you can.
Result: 32

Task: Dear colleague, please send me the reported MIC S. pneumo for Cc1cc(CN2CCc3nc(-c4ccccn4)[nH]c(=O)c3C2)cc(C)c1O when you can.
Result: 128

Task: Dear colleague, please send me the reported MIC S. pneumo for O=c1[nH]c(-c2ccccn2)nc2c1CN(Cc1ccc(Br)cc1)CC2 when you can.
Result: 4
